Target: 12-Lipoxygenase (Rattus norvegicus, UniProt F1LQ70)
Construct: from tissue; host or cells: Wistar rat platelets (PRP mixed with PPP, from citrated aortic blood)
Sequence (F1LQ70 1-663): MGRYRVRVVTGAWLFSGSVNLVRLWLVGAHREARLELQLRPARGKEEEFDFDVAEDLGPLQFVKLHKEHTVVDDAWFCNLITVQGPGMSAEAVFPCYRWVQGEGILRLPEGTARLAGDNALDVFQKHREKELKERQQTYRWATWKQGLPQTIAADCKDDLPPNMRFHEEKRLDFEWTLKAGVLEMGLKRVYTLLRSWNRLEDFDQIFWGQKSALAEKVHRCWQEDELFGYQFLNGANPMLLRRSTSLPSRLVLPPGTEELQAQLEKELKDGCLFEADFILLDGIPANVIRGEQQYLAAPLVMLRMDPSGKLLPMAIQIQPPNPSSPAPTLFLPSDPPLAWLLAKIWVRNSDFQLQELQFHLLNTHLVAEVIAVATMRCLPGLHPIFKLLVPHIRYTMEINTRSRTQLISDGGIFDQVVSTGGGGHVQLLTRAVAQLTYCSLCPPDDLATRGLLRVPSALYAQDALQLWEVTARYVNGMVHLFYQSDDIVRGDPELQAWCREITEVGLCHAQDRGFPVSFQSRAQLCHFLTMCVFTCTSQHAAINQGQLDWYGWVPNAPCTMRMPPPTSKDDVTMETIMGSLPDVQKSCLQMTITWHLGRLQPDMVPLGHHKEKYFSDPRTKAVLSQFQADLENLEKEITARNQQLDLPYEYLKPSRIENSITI
Test: 12-Lipoxygenase inhibitory action: 12-HETE production in Wistar rat platelets (HPLC)
Type: cell-based
Conditions: 10^-5 M, read-out: 12-Lipoxygenase Inhibitory Action, % Inhibition (IE)
measuredAttribute: inhibition at 10 µM (%)
One number for each entry, in %.

Below are 5 molecules. Give each one its inhibition at 10 µM.
1. Cc1c(C)c2c(c(C)c1O)CC(C)(CC#N)O2 (stereo not drawn) [Compound 5]
2. Cc1c(C)c2c(c(C)c1O)CC(C)(/C=C\c1ccc(F)cc1)O2 (stereo not drawn) [Compound 30]
3. Cc1c(C)c2c(c(C)c1O)CC(C)(/C=C\CCc1ccccc1)O2 (stereo not drawn) [Compound 21]
4. COc1ccc(/C=C\C2(C)Cc3c(C)c(O)c(C)c(C)c3O2)cc1 (stereo not drawn) [Compound 24]
5. CCC/C=C\C1(C)Cc2c(C)c(O)c(C)c(C)c2O1 (stereo not drawn) [Compound 36]

result:
1: 78; 2: 100; 3: 100; 4: 99; 5: 100

* * *

Target: 12-Lipoxygenase (Rattus norvegicus, UniProt F1LQ70)
Construct: from tissue; host or cells: Wistar rat platelets (PRP mixed with PPP, from citrated aortic blood)
Test: 12-Lipoxygenase inhibitory action: 12-HETE production in Wistar rat platelets (HPLC)
Assay type: cell-based
Conditions: 10^-7 M, read-out: 12-Lipoxygenase Inhibitory Action, % Inhibition (IE)
Description: Through the descending aorta of a Wistar rat, 10 ml of blood was collected, under anesthesia, together with citric acid of a volume corresponding to 10%. PRP and PPP were respectively prepared, then they were mixed to make the number of platelets to be 10^9 /ml. […] 100 μl of this mixture solution was subjected to high performance liquid chromatography to quantitatively determine 12-HETE. […]
Would you kindly list inhibition at 0.1 µM for each of these compounds?
Give bare numbers, in %.

The following compounds have reported results that may help.
1) CCCCCCCCCCCCCC1(C)Cc2c(C)c(O)c(C)c(C)c2O1 (centres unmarked) | 9
2) Cc1ccc(/C=C\C2(C)Cc3c(C)c(O)c(C)c(C)c3O2)cc1 (centres unmarked) | 2
3) Cc1c(C)c2c(c(C)c1O)CC(C)(/C=C\c1ccc(F)cc1)O2 (centres unmarked) | 21
4) Cc1c(C)c2c(c(C)c1O)CC(C)(CCCCc1ccccc1)O2 (centres unmarked) | 19

// next item, inhibition at 0.1 µM requested
The recorded inhibition at 0.1 µM for Cc1ccc(CCC2(C)Cc3c(C)c(O)c(C)c(C)c3O2)cc1 (centres unmarked) is 8

These data points were gathered from patent US4978761A.
